biological target: FimH (Escherichia coli, UniProt Q1R2J4); construct: endogenous in cells; host or cells: type 1 piliated UPEC bacteria; assay: cell-based; set-up: species or system UPEC; settings: read-out: HA 50% titer EC90
Sequence (P08190 24-167, other chains not shown): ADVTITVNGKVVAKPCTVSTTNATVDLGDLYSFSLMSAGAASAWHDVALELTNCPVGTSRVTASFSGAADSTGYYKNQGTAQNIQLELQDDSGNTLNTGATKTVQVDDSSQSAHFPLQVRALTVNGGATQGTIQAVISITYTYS
measurementLabel: EC90
Units required after the number.

These solved cases illustrate the format of a correct answer.
[
  {
    "smilesInput": "COC(=O)c1cccc(-c2ccc(O[C@H]3O[C@H](CO)[C@@H](O)[C@H](O)[C@@H]3O)cc2)c1",
    "EC90": "1 µM"
  },
  {
    "smilesInput": "O=C1Cc2cc(O[C@H]3O[C@H](CO)[C@@H](O)[C@H](O)[C@@H]3O)ccc2O1",
    "EC90": "8 µM"
  }
]

Which EC90 is listed for O=C(O)c1cccc(-c2ccc(O[C@H]3O[C@H](CO)[C@@H](O)[C@H](O)[C@@H]3O)cc2)c1 ?
4 µM
